Data provenance is the supplement of paper PMC13380429.

Test system: Vero E6 infected with SARS-CoV-2
Assay: SARS-CoV-2 infection rate relative to infected DMSO; higher = more infection, active = 60 or less
Settings: 24 h
# SARS-CoV-2 infection rate per entry
# value in %; strip the unit string

Retrieve SARS-CoV-2 infection rate measured for CCOc1cn(-c2ccc(F)cc2C)nc1C(=O)Nc1ccc(Oc2ccnc3cc(OC)c(OC)cc23)c(F)c1 (10 µM) and print it.
110

New cases:
Retrieve SARS-CoV-2 infection rate measured for Cc1cc(=O)n(-c2ccccc2)[nH]1 [N-demethylantipyrine] (10 µM) and print it.
101

Retrieve SARS-CoV-2 infection rate measured for CC1(C)OC(=O)C(OCC2CC2)=C1c1ccc(S(C)(=O)=O)cc1 [firocoxib] (10 µM) and print it.
84.5

Retrieve SARS-CoV-2 infection rate measured for CCC[N+]12[C@H](O)[C@@H](CC)[C@@H]3C[C@H]1[C@@H]1N(C)c4ccccc4[C@]14C[C@H]2[C@@H]3[C@H]4O [neo-gilurytmal] (10 µM) and print it.
116

Retrieve SARS-CoV-2 infection rate measured for CC(=O)Nc1cccc(-n2c(=O)n(C3CC3)c(=O)c3c(Nc4ccc(I)cc4F)n(C)c(=O)c(C)c32)c1 [trametinib] (0.833333 µM) and print it.
89

Retrieve SARS-CoV-2 infection rate measured for CC(=O)OCC1=C(C(=O)O)N2C(=O)[C@@H](NC(=O)CCCC(N)C(=O)O)C2SC1 (stereo partly drawn) [cephalosporin-c-zn] (10 µM) and print it.
97

Retrieve SARS-CoV-2 infection rate measured for O=C(CC(c1ccccc1)c1ccccc1)N1CCN(C(c2ccccc2)c2ccccc2)CC1 (10 µM) and print it.
102

Retrieve SARS-CoV-2 infection rate measured for COc1cc(NC(=O)c2ccc(-c3ccc(Cl)cc3)o2)cc(OC)c1 (10 µM) and print it.
112
